Origin of the recorded values: paper PMC6533264

ASSAY SYSTEM: T1, extracellular domain of human IL-4Rα (residues 26–232), C-terminal 6× His (human, UniProt P24394)
T1 construct: human interleukin-4 receptor alpha subunit, extracellular domain, residues 26-232; Subcloned into the pSecTag2A vector; N-glycosylated (~45 kDa, ~26 kDa after PNGase F); also called wild-type IL-4Rα; soluble IL-4Rα; source: HEK293F, transiently transfected, purified (Ni-NTA); not shown: His6, C-terminal, kept
T1 sequence (P24394 26-232): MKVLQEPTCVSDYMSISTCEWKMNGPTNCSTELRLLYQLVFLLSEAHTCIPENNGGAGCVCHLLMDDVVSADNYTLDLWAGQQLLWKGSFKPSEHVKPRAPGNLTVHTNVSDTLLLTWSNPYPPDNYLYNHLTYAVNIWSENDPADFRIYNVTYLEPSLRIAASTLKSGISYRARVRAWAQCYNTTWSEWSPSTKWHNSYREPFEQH
MEASUREMENT DESCRIPTION: BLI; OctetRED96; Ab (1 μg/mL) captured on anti-human IgG Fc capture (AHC) biosensors at low density (0.6 to 0.8 nm), soluble monomeric IL-4Rα as analyte; 25 °C, PBS pH 7.4, 0.02% Tween 20; association 300 s, dissociation 600-900 s; 1:1 binding model
RUN PARAMETERS: both partners purified
ATTRIBUTE MEASURED: pKd
// returns pKd (minus log10 of molar concentration), number only

Example cases with answers are listed next.
Using the record for 4R34.1.21, human IgG1 (antibody, V domains shown) VH: EVQLLESGGGLVQPGGSLRLSCAASGFTFSNYAMSWVRQAPGKGLEWVSAITSSGRSIYYADSVKGRFTISRDNSKNTLYLQMNSLRAEDTAVYYCARVHRAFDYWGQGTLVTVSS VL: QSVLTQPPSASGTPGQRVTISCSGSAALDLSPSFNWYQQLPGTAPKLLIYADSHRPSGVPDRFSGSKSGTSASLAISGLRSEDEADYYCGTWDYSLSGYVLGGGTKLTVL , report its pKd. 9.64

Consider the binder shown here: 4R34.1.19, human IgG1 (antibody, V domains shown) VH: EVQLLESGGGLVQPGGSLRLSCAASGFTFSRHAMAWVRQAPGKGLEWVSAITSSGRSIYYADSVKGRFTISRDNSKNTLYLQMNSLRAEDTAVYYCARVHRAFDYWGQGTLVTVSS VL: QSVLTQPPSASGTPGQRVTISCSGSPLFPDSGSFNWYQQLPGTAPKLLIYADSHRPSGVPDRFSGSKSGTSASLAISGLRSEDEADYYCGTWDYSLSGYVLGGGTKLTVL What is its recorded pKd? 9.75

Moving on to the next binder.
Return reported pKd; argument: 4R34.1.11, human IgG1 (antibody, V domains shown) VH: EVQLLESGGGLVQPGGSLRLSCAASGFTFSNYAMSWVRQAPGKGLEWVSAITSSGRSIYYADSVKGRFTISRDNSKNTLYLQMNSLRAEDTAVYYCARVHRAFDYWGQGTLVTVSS VL: QSVLTQPPSASGTPGQRVTISCSGSSANSRTDGFNWYQQLPGTAPKLLIYADSHRPSGVPDRFSGSKSGTSASLAISGLRSEDEADYYCGTWDYSLRGYVLGGGTKLTVL 9.68
